Tested on: six V600E BRAF melanoma cell lines
Protocol notes: Screening of recombinant RTK ligands for ability to confer resistance to BRAFi (PLX4720) or MEKi (PD184352) (Table 4)
Assay type: cell-based, human
Set-up: scale not given here
Condition description: Colo 829, PLX4720 - 2 uM, ligand 1.6 ng/ml
Assay endpoint: ability of recombinant RTK ligand to confer resistance
Output: the number by itself.

Record BDNF (protein, UniProt P23560 19-247, looked up) Neurotrophic factor BDNF …: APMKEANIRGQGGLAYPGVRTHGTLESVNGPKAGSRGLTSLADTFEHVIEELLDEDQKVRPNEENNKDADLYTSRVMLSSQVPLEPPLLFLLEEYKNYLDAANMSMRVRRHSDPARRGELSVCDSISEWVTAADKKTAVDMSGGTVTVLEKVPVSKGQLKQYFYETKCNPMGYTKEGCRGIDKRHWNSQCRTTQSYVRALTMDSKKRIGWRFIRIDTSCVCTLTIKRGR . Reported ability of recombinant RTK ligand to confer resistance: 1.00

Record Ephrin-A4 (protein, UniProt P52798 26-170, looked up) Ephrin-A4: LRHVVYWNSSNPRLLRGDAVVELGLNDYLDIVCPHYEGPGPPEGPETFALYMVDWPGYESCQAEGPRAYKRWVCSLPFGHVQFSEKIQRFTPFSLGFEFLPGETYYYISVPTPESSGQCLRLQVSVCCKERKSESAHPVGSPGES . Reported ability of recombinant RTK ligand to confer resistance: 1.06

Record flt-3 ligand (FL) (protein, UniProt P49771 27-235, looked up) Fms-related tyrosine kinase 3 …: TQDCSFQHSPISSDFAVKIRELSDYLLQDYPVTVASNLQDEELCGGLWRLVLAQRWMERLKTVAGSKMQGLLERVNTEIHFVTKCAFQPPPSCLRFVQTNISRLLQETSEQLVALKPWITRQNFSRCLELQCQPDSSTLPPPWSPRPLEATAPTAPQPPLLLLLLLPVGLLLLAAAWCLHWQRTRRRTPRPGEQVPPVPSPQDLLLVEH . Reported ability of recombinant RTK ligand to confer resistance: 0.98

Record GDNF (protein, UniProt P39905 78-211, looked up) Glial cell line-derived …: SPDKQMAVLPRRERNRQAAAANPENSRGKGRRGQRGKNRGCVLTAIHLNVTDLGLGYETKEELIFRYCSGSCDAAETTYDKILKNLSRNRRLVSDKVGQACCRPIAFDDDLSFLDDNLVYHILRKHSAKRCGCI . Reported ability of recombinant RTK ligand to confer resistance: 1.00

Record VEGF-C (protein, UniProt P49767 112-227, looked up) Vascular endothelial growth …: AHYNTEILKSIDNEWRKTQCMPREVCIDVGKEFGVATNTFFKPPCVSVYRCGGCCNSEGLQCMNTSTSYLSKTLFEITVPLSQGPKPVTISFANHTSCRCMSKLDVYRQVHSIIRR . Reported ability of recombinant RTK ligand to confer resistance: 0.99
